# target of assay: Alpha adrenergic receptor 1A and 1D (Rattus norvegicus) (UniProt P23944+P43140)
# test method notes: Selectivity for Sprague-Dawley rat adrenergic alpha 1D receptor over adrenergic alpha 1A receptor
# Type: functional
measured quantity: Selectivity ratio
Numbers only.

[[record]]
structure_notation = "COc1ccc2ccccc2c1OCCNC[C@H]1COc2cc3c(cc2O1)CCCC3"
reported_result = 245

[[record]]
structure_notation = "COc1cccc(-c2ccccc2)c1OCCNC[C@H]1COc2ccccc2O1"
reported_result = 0.2


Provide Selectivity ratio value for the following compound: COc1ccc2ccccc2c1OCCNC[C@H]1COc2ccccc2O1 0.02

====

# target of assay: Alpha adrenergic receptor 1A and 1B (Rattus norvegicus) (UniProt P15823+P43140)
# Sequence (P15823 whole entry, looked up): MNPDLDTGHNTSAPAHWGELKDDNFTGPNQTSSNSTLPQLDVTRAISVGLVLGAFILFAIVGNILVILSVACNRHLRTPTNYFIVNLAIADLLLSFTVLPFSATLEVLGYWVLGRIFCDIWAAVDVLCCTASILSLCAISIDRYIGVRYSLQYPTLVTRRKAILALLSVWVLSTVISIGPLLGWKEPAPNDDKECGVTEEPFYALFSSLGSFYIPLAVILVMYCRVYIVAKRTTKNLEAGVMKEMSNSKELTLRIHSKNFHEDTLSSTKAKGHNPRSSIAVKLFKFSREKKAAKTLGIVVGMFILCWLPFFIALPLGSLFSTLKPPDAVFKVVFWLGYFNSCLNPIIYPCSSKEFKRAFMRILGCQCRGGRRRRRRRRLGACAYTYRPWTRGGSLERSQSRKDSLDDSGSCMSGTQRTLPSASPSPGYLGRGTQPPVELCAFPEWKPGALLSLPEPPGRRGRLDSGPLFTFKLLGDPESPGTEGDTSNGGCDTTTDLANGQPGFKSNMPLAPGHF
# Sequence (P43140 whole entry, looked up): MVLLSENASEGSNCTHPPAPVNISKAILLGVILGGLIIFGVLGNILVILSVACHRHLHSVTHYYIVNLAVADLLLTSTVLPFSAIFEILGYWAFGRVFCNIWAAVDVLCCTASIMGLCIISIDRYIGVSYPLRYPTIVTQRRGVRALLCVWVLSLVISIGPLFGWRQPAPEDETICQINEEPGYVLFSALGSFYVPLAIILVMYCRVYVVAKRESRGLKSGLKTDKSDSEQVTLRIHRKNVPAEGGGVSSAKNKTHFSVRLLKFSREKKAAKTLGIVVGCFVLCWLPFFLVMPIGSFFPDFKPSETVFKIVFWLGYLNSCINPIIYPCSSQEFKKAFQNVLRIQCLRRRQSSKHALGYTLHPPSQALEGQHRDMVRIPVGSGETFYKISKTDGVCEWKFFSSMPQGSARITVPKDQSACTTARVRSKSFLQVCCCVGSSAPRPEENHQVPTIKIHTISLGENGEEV
# test method notes: Selectivity for Sprague-Dawley rat adrenergic alpha 1B receptor over adrenergic alpha 1A receptor
# Format: functional
measured quantity: Selectivity ratio

Worked examples follow.
[[record]]
structure_notation = "COc1cccc(OC)c1OCCNC[C@H]1COc2cc3c(cc2O1)CCCC3"
reported_result = "< 0.3"

[[record]]
structure_notation = "COc1ccc2ccccc2c1OCCNC[C@H]1COc2cc3c(cc2O1)CCCC3"
reported_result = "> 955"


Continue with the compound presented below.
Fill in reported Selectivity ratio for this entry: COc1ccc(-c2ccccc2)cc1OCCNC[C@H]1COc2ccccc2O1 < 0.01
